Measured EC50 of individual entries
EXPERIMENTAL DETAILS: Radical scavenging activity, DPPH method
Type: biochemical
CONDITIONS USED: MeOH, 30 min, r.t., mean ± SD of 3 independent experiments

{"COMPOUND": "COc1cc(/C=C/C(=O)NOCc2ccc(Cl)cc2Cl)ccc1O", "EC50 / µM": 32}
{"COMPOUND": "COc1cc(/C=C/C(=O)NOCc2ccccc2OC)ccc1O", "EC50 / µM": 34}
{"COMPOUND": "COc1cc(/C=C/C(=O)NOCc2ccccc2C(F)(F)F)ccc1O", "EC50 / µM": 34}
{"COMPOUND": "COc1cccc(CONC(=O)/C=C/c2ccc(O)c(OC)c2)c1", "EC50 / µM": 40}
{"COMPOUND": "COc1cc(/C=C/C(=O)NOCc2cccc(Cl)c2)ccc1O", "EC50 / µM": 33}
{"COMPOUND": "COc1cc(/C=C/C(=O)O)ccc1O [FA, (E)-4-hydroxy-3-methoxy cinnamic acid, reference compound]", "EC50 / µM": 36}
